assay: MRT in Sprague-Dawley rat at 5 mg/kg, iv measured upto 24 hrs by LC-MS/MS analysis; type: ADME, organism-based; conditions: in vivo
measure-name: MRT (h)
Write down the numeric answer in h and omit the unit.

Reported MRT of Cc1cc(C)cc(-n2nc(-c3ccc(C(F)(F)F)cc3O)nc2-c2ccccc2O)c1 : 2.84

* * *

test system: PC-12; test: Neuroprotective activity against SNP induced rat PC-12 cells assessed as increase in cell viability at 10 uM preincubated for 2 hrs followed by SNP stimulation for 24 hrs by MTT assay relative to control; assay type: functional
measure-name: Activity
Your reply should be a number followed by the unit it is expressed in.

Known results for compounds:
>>> result("Oc1cc(C(F)(F)F)ccc1-c1nc(-c2ccccc2O)n(-c2ccc(Cl)cc2Cl)n1")
"95.21%"
>>> result("COc1ccccc1-n1nc(-c2ccc(C(F)(F)F)cc2O)nc1-c1ccccc1O")
"96.2%"
>>> result("Cc1cc(C)cc(-n2nc(-c3ccc(C(F)(F)F)cc3O)nc2-c2ccccc2O)c1")
"105.13%"

Reported Activity of CC(C)c1ccc(-n2nc(-c3ccc(C(F)(F)F)cc3O)nc2-c2ccccc2O)cc1 : 108%

Reported Activity of Oc1cc(C(F)(F)F)ccc1-c1nc(-c2ccccc2O)n(-c2cccc(Cl)c2)n1 : 100.29%

Reported Activity of Oc1cc(C(F)(F)F)ccc1-c1nc(-c2ccccc2O)n(-c2ccc(F)cc2)n1 : 99.83%

Reported Activity of Cc1ccc(-n2nc(-c3ccc(C(F)(F)F)cc3O)nc2-c2ccccc2O)cc1 : 102.45%

Reported Activity of COc1cccc(-n2nc(-c3ccc(C(F)(F)F)cc3O)nc2-c2ccccc2O)c1 : 105.81%

Reported Activity of Oc1ccccc1-c1nc(-c2ccc(C(F)(F)F)cc2)no1 : 84.7%

Reported Activity of Oc1cc(C(F)(F)F)ccc1-c1nc(-c2ccccc2O)n(-c2ccc(Br)cc2)n1 : 100.49%

* * *

test: Plasma protein binding in Sprague-Dawley rat plasma at 10 uM incubated for 6 hrs by LC-MS/MS based equilibrium dialysis method; type: ADME, cell-free; settings: read-out: PPB (converted)
measure-name: fraction unbound at 6 h, 10 µM
Just the number, please, no unit attached.

>>> recorded_number("Cc1cc(C)cc(-n2nc(-c3ccc(C(F)(F)F)cc3O)nc2-c2ccccc2O)c1")
0.0008

Now consider a different compound.
Reported fraction unbound at 6 h, 10 µM of CC(=O)N1CCN(c2ccc(OCC3COC(Cn4ccnc4)(c4ccc(Cl)cc4Cl)O3)cc2)CC1 (configuration not stated) : 0.0032

* * *

assay: Metabolic stability in human plasma assessed as half life at 200 uM by LC-MS/MS analysis relative to control; assay type: ADME, cell-free
measure-name: half-life at 200 µM (min)
Write down the numeric answer in min and omit the unit.

Reported half-life at 200 µM of CC(C)[N+](C)(CCOC(=O)C1c2ccccc2Oc2ccccc21)C(C)C [PROPANTHELINE] : 23.5

* * *

biological target: Voltage-gated inwardly rectifying potassium channel KCNH2 (Homo sapiens); assay: Inhibition of hERG channel expressed in HEK293 cells at -80 mV holding potential by automated patch clamp method
Sequence (Q12809 whole entry): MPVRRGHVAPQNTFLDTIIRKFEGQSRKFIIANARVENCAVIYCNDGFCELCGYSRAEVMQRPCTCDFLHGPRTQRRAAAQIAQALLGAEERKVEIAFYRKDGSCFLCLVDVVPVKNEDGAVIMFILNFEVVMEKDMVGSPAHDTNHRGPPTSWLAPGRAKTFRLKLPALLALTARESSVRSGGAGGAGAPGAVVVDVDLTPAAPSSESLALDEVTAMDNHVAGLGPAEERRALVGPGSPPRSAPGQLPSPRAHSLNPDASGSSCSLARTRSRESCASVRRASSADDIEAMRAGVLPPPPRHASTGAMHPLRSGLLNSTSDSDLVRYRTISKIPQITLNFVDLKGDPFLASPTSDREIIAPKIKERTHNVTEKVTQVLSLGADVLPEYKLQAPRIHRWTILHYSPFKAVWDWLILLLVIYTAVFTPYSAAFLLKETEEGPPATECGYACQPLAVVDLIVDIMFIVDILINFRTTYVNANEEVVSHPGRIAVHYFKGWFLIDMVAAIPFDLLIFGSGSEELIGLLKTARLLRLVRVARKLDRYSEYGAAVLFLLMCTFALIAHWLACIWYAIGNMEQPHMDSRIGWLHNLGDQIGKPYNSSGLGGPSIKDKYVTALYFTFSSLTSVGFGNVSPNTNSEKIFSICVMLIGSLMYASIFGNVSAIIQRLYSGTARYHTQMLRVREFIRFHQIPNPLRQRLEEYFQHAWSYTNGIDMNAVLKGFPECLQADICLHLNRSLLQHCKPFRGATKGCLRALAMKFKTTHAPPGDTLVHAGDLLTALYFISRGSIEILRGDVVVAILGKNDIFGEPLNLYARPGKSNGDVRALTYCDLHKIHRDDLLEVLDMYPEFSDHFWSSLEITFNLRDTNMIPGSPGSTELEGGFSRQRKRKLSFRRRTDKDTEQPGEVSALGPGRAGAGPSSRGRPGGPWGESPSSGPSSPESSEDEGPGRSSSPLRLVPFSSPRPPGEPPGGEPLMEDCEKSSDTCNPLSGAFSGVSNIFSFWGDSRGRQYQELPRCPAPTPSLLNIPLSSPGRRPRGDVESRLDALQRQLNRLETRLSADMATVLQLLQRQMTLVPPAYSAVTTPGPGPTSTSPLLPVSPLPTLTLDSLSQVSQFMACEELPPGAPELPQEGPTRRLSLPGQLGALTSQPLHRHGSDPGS
pIC50: −log10 of the molar value.
measure-name: pIC50

Reported pIC50 of Cc1cc(C)cc(-n2nc(-c3ccc(C(F)(F)F)cc3O)nc2-c2ccccc2O)c1 : < 4.52
